tested on: RIVA; test: growth inhibition by drug plus 177Lu-lilotomab satetraxetan (1 - RLU/untreated control) (fraction); higher = stronger inhibition; conditions: 10 nM; time (day): 4; 177Lu-lilotomab satetraxetan 0.5 ug/ml
Counter-ions that a name gives are not always drawn.
Measured metric: growth inhibition by drug plus 177Lu-lilotomab satetraxetan
# output: bare number, no unit

Worked examples, 10 compounds total:
{"columns": ["Compound", "Assay system", "Measurement"],
 "data": [
  ["O=C(NC1CCNCC1)c1n[nH]cc1NC(=O)c1c(Cl)cccc1Cl", "RIVA", 0.577],
  ["COc1cc2c(cc1OC)CN(CCc1ccc(NC(=O)c3cccc4c(=O)c5cccc(OC)c5[nH]c34)cc1)CC2 [Elacridar]", "RIVA", 0.468],
  ["COc1ncc(-c2ccc3nccc(-c4ccnnc4)c3c2)cc1NS(=O)(=O)c1ccc(F)cc1F", "RIVA", 0.937],
  ["C=CC[C@@H]1/C=C(\\C)C[C@H](C)C[C@H](OC)[C@H]2O[C@@](O)(C(=O)C(=O)N3CCCC[C@H]3C(=O)O[C@H](/C(C)=C/[C@@H]3CC[C@@H](O)[C@H](OC)C3)[C@H](C)[C@@H](O)CC1=O)[C@H](C)C[C@@H]2OC [FK-506 (Tacrolimus)]", "RIVA", 0.806],
  ["COc1cc(Nc2ncc(F)c(Nc3ccc4c(n3)NC(=O)C(C)(C)O4)n2)cc(OC)c1OC [R406(free base)]", "RIVA", 0.592],
  ["CN(NC(=O)CC(=O)NN(C)C(=S)c1ccccc1)C(=S)c1ccccc1 [Elesclomol]", "RIVA", 0.968],
  ["N#CC[C@H](C1CCCC1)n1cc(-c2ncnc3[nH]ccc23)cn1", "RIVA", 0.445],
  ["CC(=O)O[C@]1(C(C)=O)CC[C@H]2[C@@H]3C[C@H](C)C4=CC(=O)CC[C@]4(C)[C@H]3CC[C@@]21C [Medroxyprogesterone acetate]", "RIVA", 0.555],
  ["Cn1cc(-c2ccc3nnc(Sc4ccc5ncccc5c4)n3n2)cn1", "RIVA", 0.637],
  ["O=C1CN2Cc3c(ccc(Cl)c3Cl)N=C2N1 [Anagrelide hydrochloride]", "RIVA", 0.615]
]}

Next, consider the following compound.
Kindly note the recorded growth inhibition by drug plus 177Lu-lilotomab satetraxetan for "CC(=O)c1c(C)c2cnc(Nc3ccc(N4CCNCC4)cn3)nc2n(C2CCCC2)c1=O" , which is 0.527

---

test system: U-2932; assay: growth inhibition by drug plus 177Lu-lilotomab satetraxetan (1 - RLU/untreated control) (fraction); higher = stronger inhibition; settings: 10 nM; time (day): 6; 177Lu-lilotomab satetraxetan 1 ug/ml
Measured metric: growth inhibition by drug plus 177Lu-lilotomab satetraxetan
// response body must contain only the number

{"columns": ["Compound", "Measurement"],
 "data": [
  ["O=C(c1cc(Cc2n[nH]c(=O)c3ccccc23)ccc1F)N1CCN(C(=O)C2CC2)CC1", 0.188],
  ["Cn1cc(-c2ccc3nnc(Sc4ccc5ncccc5c4)n3n2)cn1", 0.212],
  ["CCC(CC)CC1(C(=O)Nc2ccccc2SC(=O)C(C)C)CCCCC1", 0.2],
  ["CCn1c(-c2nonc2N)nc2cnc(Oc3cccc(NC(=O)c4ccc(OCCN5CCOCC5)cc4)c3)cc21", 0.0328],
  ["COc1ncc(-c2ccc3nccc(-c4ccnnc4)c3c2)cc1NS(=O)(=O)c1ccc(F)cc1F", 0.768],
  ["O=C(O)Cc1cccc(OCCCN(Cc2cccc(C(F)(F)F)c2Cl)CC(c2ccccc2)c2ccccc2)c1", 0.142]
]}

Input "Nc1ccc(-c2ccc3ncc4ccc(=O)n(-c5cccc(C(F)(F)F)c5)c4c3c2)cn1" . Output growth inhibition by drug plus 177Lu-lilotomab satetraxetan: 0.312

growth inhibition by drug plus 177Lu-lilotomab satetraxetan measured on "O=C(O)C1(C(=O)O)CCC1.[NH2-].[NH2-].[Pt+2]" = 0.141

// field: growth inhibition by drug plus 177Lu-lilotomab satetraxetan; key: "Cc1cc(Nc2cc(N3CCN(C)CC3)nc(Sc3ccc(NC(=O)C4CC4)cc3)n2)n[nH]1" ; value = 0.172

// growth inhibition by drug plus 177Lu-lilotomab satetraxetan lookup, compound = "CS(=O)(=O)N1CCc2c(-c3cnc(N)nc3)nc(N3CCOCC3)nc21" , result: 0.135

Per the records, this compound ( "CC(=O)O[C@H]1C(=O)[C@@]2(C)[C@H]([C@H](OC(=O)c3ccccc3)[C@]3(O)C[C@H](OC(=O)[C@H](O)[C@@H](NC(=O)c4ccccc4)c4ccccc4)C(C)=C1C3(C)C)[C@]1(OC(C)=O)CO[C@@H]1C[C@@H]2O" ) has growth inhibition by drug plus 177Lu-lilotomab satetraxetan equal to 0.883

growth inhibition by drug plus 177Lu-lilotomab satetraxetan reading for "Cc1cnc(NC(=O)Nc2cc(Br)c(C)cc2OC[C@@H]2CNCCO2)cn1" : 0.164

# compound "CCOc1cc2ncc(C#N)c(Nc3ccc(OCc4ccccn4)c(Cl)c3)c2cc1NC(=O)/C=C/CN(C)C" ; its growth inhibition by drug plus 177Lu-lilotomab satetraxetan = 0.194

Item: "CCNC(=O)c1noc(-c2cc(C(C)C)c(O)cc2O)c1-c1ccc(CN2CCOCC2)cc1" | growth inhibition by drug plus 177Lu-lilotomab satetraxetan: 0.245

CCC(C)(C)C(=O)O[C@H]1C[C@@H](C)C=C2C=C[C@H](C)[C@H](CC[C@@H]3C[C@@H](O)CC(=O)O3)[C@H]21 [Simvastatin (Zocor)] has a reported growth inhibition by drug plus 177Lu-lilotomab satetraxetan of 0.124

Please fill in: growth inhibition by drug plus 177Lu-lilotomab satetraxetan reported for "CN[C@@H](C)C(=O)N[C@H]1CN(C(=O)CC(C)C)CC[C@H]2CC[C@@H](C(=O)NC(c3ccccc3)c3ccccc3)N2C1=O" = 0.0545

Just so you know, measured growth inhibition by drug plus 177Lu-lilotomab satetraxetan for "Cc1cccc(-c2[nH]c(C(C)(C)C)nc2-c2ccc3nccnc3c2)n1" came out at 0.201

Origin of the recorded values: the supplement of paper PMC6897291
